Attribution: ChEMBL document CHEMBL1127878

# tgt: Type-1 angiotensin II receptor (Oryctolagus cuniculus, UniProt P34976)
# Sequence (P34976 whole entry): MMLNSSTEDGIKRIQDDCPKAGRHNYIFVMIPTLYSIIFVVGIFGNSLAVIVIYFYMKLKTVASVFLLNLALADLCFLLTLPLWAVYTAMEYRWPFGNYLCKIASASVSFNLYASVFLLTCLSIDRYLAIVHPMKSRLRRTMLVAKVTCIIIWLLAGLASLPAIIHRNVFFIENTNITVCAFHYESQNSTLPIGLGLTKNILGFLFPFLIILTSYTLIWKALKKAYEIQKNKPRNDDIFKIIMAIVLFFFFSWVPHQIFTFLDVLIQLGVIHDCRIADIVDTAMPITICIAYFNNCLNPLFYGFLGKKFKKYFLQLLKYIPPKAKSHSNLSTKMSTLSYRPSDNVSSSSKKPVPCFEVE
# assayText: In vitro binding affinity against Angiotensin II receptor in rabbit aorta rings
# Format: tissue-based
# conditions: read-out: pA2 (converted)
Readings of Kb for the listed compounds
valueKind: Kb (nM)

In [3]: df
Out[3]:
                                    compound  resultnumber
 0  CCOC(=O)/C=C1\C2C3C=CC(CCC3)C2C(=O)N1Cc1ccc(-c2ccccc2-c2nn[nH]n2)cc1 (stereo not drawn)            20
 1  CCOC(=O)/C=C1\CC(C)(C(C)C)CC(=O)N1Cc1ccc(-c2ccccc2-c2nn[nH]n2)cc1 (stereo not drawn)          15.8
 2  CCOC(=O)/C=C1\CC(CC)(CC)CC(=O)N1Cc1ccc(-c2ccccc2-c2nn[nH]n2)cc1 (stereo in doubt; 11)          3.98
 3  CCOC(=O)/C=C1\CC2(CCCCC2)CC(=O)N1Cc1ccc(-c2ccccc2-c2nn[nH]n2)cc1          5.01
 4  CCOC(=O)/C=C1\CC(C)(CC)CC(=O)N1Cc1ccc(-c2ccccc2-c2nn[nH]n2)cc1 (stereo in doubt; 9)             1
 5  CCCCC1(C)CC(=O)N(Cc2ccc(-c3ccccc3-c3nn[nH]n3)cc2)/C(=C/C(=O)OCC)C1 (stereo not drawn)          31.6
 6  CCOC(=O)/C=C1\CC2(CCCCC2)C(=O)N1Cc1ccc(-c2ccccc2-c2nn[nH]n2)cc1          12.6
 7  CCCC1(CC)CC(=O)N(Cc2ccc(-c3ccccc3-c3nn[nH]n3)cc2)/C(=C/C(=O)OCC)C1 (stereo not drawn)          12.6
 8  CCOC(=O)/C=C1\C2C3C=CC(CC3)C2C(=O)N1Cc1ccc(-c2ccccc2-c2nn[nH]n2)cc1 (stereo in doubt; 7)            10
 9  CCOC(=O)/C=C1\CC2(CCCC2)CC(=O)N1Cc1ccc(-c2ccccc2-c2nn[nH]n2)cc1          12.6
10  CCOC(=O)/C=C1\CC(C)(C)CC(=O)N1Cc1ccc(-c2ccccc2-c2nn[nH]n2)cc1          39.8
11  CCOC(=O)/C=C1\CC2(CCCC2)C(=O)N1Cc1ccc(-c2ccccc2-c2nn[nH]n2)cc1          3.16
12  CCOC(=O)/C=C1\CC(C)(CC)CC(=O)N1Cc1ccc(-c2ccccc2-c2nn[nH]n2)cc1 (stereo in doubt; 13)          2.51
13  CCCCC1(CC)CC(=O)N(Cc2ccc(-c3ccccc3-c3nn[nH]n3)cc2)/C(=C/C(=O)OCC)C1 (stereo not drawn)           100
14  CCOC(=O)/C=C1\CC2(CCCCCC2)C(=O)N1Cc1ccc(-c2ccccc2-c2nn[nH]n2)cc1          3.98
15  CCOC(=O)/C=C1\C2C3CCC(C3)C2C(=O)N1Cc1ccc(-c2ccccc2-c2nn[nH]n2)cc1 (stereo not drawn)             1
16  CCOC(=O)/C=C1\CC(CC)(CC)CC(=O)N1Cc1ccc(-c2ccccc2-c2nn[nH]n2)cc1 (stereo in doubt; 16)          7.94
17  CCOC(=O)/C=C1\C2C3C=CC(CC3)C2C(=O)N1Cc1ccc(-c2ccccc2-c2nn[nH]n2)cc1 (stereo in doubt; 5)          6.31
